Origin of values: patent US20090042785A1

Give pKd for every item shown.
biological target: T1, human CTLA-4-Fc (Chimerigen) (human, UniProt P16410 36-161; P01857 99-330 = IgG part, limits assumed); assay: SPR-Affinity of the PEGylated monomer towards hCTLA-4-Fc
T1 construct: extracellular domain;domain: Fc portion; Bought protein; also called hCTLA-4-Fc; huCTLA-4-Ig
T1 sequence (P16410 other isoform, or with tags, fused parts or gaps mutant limits assumed): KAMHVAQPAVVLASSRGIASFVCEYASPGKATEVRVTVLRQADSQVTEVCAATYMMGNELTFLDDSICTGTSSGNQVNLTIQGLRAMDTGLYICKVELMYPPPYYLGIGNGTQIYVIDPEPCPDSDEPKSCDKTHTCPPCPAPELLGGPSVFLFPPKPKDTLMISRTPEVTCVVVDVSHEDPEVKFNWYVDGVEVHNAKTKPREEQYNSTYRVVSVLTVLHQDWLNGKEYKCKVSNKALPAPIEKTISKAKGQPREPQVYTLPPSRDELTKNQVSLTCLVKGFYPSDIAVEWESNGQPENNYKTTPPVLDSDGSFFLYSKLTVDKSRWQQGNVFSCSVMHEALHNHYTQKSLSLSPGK
Hey, just a heads up that pKd is the negative log base 10 of the concentration in molar.

Specify reported pKd for the binder shown: S140.4-O10_S146C PEGylated with 12k PEG-maleimide (designed binder, 12k PEG-maleimide on Cys 146, also called O10_S146C PEGylated monomer) QDSTSDLIPAPPLSKVPLQQNFQDNQFHGKWYVVGLAGNRILRDDQHPMNMYATIYELKEDKSYNVTSVISSHKKCEYTIATFVPGSQPGEFTLGNIKSYGDKTSYLVRVVSTDYNQYAVVFFKLAEDNAEFFAITIYGRTKELACELKENFIRFSKSLGLPENHIVFPVPIDQCIDG
7.30

Specify reported pKd for the binder shown: S140.4-O10_A145C PEGylated with 12k PEG-maleimide (designed binder, 12k PEG-maleimide on Cys 145, also called O10_A145C PEGylated monomer) QDSTSDLIPAPPLSKVPLQQNFQDNQFHGKWYVVGLAGNRILRDDQHPMNMYATIYELKEDKSYNVTSVISSHKKCEYTIATFVPGSQPGEFTLGNIKSYGDKTSYLVRVVSTDYNQYAVVFFKLAEDNAEFFAITIYGRTKELCSELKENFIRFSKSLGLPENHIVFPVPIDQCIDG
7.30

Specify reported pKd for the binder shown: S140.4-O10_V84C PEGylated with 12k PEG-maleimide (designed binder, 12k PEG-maleimide on Cys 84, also called O10_V84C PEGylated monomer) QDSTSDLIPAPPLSKVPLQQNFQDNQFHGKWYVVGLAGNRILRDDQHPMNMYATIYELKEDKSYNVTSVISSHKKCEYTIATFCPGSQPGEFTLGNIKSYGDKTSYLVRVVSTDYNQYAVVFFKLAEDNAEFFAITIYGRTKELASELKENFIRFSKSLGLPENHIVFPVPIDQCIDG
7.01
